testedOn: 5-HT2a (human recombinant receptor, CHO-K1) (Homo sapiens, UniProt P28223)
Sequence (P28223 whole entry): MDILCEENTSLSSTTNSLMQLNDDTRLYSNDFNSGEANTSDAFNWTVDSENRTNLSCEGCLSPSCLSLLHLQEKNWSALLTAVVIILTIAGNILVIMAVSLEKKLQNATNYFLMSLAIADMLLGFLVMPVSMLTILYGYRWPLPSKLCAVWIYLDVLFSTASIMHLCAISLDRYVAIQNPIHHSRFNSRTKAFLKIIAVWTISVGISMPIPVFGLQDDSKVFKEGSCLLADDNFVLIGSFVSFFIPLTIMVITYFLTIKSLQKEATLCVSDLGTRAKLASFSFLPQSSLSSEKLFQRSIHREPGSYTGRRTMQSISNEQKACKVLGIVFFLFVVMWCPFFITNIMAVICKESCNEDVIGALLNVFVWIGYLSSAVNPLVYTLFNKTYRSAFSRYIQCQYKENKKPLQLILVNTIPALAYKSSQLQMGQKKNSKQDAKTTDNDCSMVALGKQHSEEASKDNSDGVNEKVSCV
testDescription: Radioligand binding assay, 5-HT2a
pIC50: −log10 of the molar value.
Criterion: pIC50 meeting or surpassing 6. Met: True. Not met: False.

# smilesEntry, testedOn, groupLabel
records = [
    ("Cc1cc(C)cc(CCCn2c(=O)c3c(N4CCN(C)CC4)cc(Cl)cc3n(Cc3ccccc3)c2=O)c1", "5-HT2a (human recombinant receptor, CHO-K1) (Homo sapiens, UniProt P28223)", "True"),
]

Assess whether reported pIC50 for C[C@H](c1ccccc1)n1c(=O)c2c(N3CCN(C)CC3)cc(Cl)cc2n(Cc2ccccc2)c1=O sits at 6 or higher.
True

Assess whether reported pIC50 for CN1CCN(c2cc(Cl)cc3c2c(=O)n(CCc2ccccc2)c(=O)n3Cc2ccccc2)CC1 sits at 6 or higher.
True

Assess whether reported pIC50 for CN1CCN(c2cc(Cl)cc3c2c(=O)n(Cc2cccc(F)c2)c(=O)n3Cc2ccccc2)CC1 sits at 6 or higher.
True

Assess whether reported pIC50 for CN1CCN(c2cc(Cl)cc3c2c(=O)n(Cc2ccccc2)c(=O)n3Cc2ccccc2)CC1 sits at 6 or higher.
False

Assess whether reported pIC50 for CN1CCN(c2cc(Cl)cc3c2c(=O)n(Cc2ccccc2Cl)c(=O)n3Cc2ccccc2)CC1 sits at 6 or higher.
True
